- TEST: Compound solubility in water
- Assay type: physicochemical
ENDPOINT: solubility (µg/mL)

Look over these answered cases.
Cc1cc(-c2ccc3c(c2)ncn3C)nc2c(C(=O)NC(C3CC3)C(F)(F)F)cnn12 (stereo not drawn) [III-303]    3.2
Cc1cc(N2CCC(F)(F)CC2)nc2c(C(=O)NC(C)C3CC3)cnn12 (stereo not drawn) [III-60]    4.4
Cc1cc(-n2ccc(Cl)n2)nc2c(C(=O)NC(C)C(F)(F)F)cnn12 (stereo not drawn) [III-170]    0.5
Cc1cc(-c2cccnc2C#N)nc2c(C(=O)N[C@H](C3CC3)C(F)(F)F)cnn12 [III-365]    1.8
Cc1cc(-c2cccc(Cl)n2)nc2c(C(=O)NC(C)(C)C3CC3)cnn12 [III-62]    1.2

A = Cc1cc(-c2ccc(Cl)cn2)nc2c(C(=O)NC(C3CC3)C(F)(F)F)cnn12 (stereo not drawn) [III-208]
B = Cc1cc(-c2ccns2)nc2c(C(=O)N[C@@H](C)C3CC3)cnn12 [III-197]
Req: Could you kindly indicate whether A or B has the higher solubility value? Indicate your choice by writing its label.
Resp: B
(B: 6.5 µg/mL, A: 0.04 µg/mL)

A = CCc1cc(-c2ccccn2)n2ncc(C(=O)NC(C)C3CC3)c2n1 (stereo not drawn) [III-48]
B = Cc1cc(-c2nc3ccccc3n2C)nc2c(C(=O)NC(C3CC3)C(F)(F)F)cnn12 (stereo not drawn) [III-312]
Req: Please indicate which item has the smaller measured solubility: A versus B Indicate your choice by writing its label.
Resp: B

Where do the numbers come from? From patent US9840510B1.
